# System: yellow nutsedge
# assay notes: Preemergent control of plant species
# Type: in vivo, Cyperus esculentus
# experimental setup: Cyperus, pre-emergence, 336 h; 0.25 lb/acre; read-out: percent preemergent control
metric: pest or weed control at 280.212 g/ha

| compound | pest or weed control at 280.212 g/ha |
| --- | --- |
| Cc1ccn2nc(S(=O)(=O)N(C(=O)CC(C)(C)C)c3c(F)cccc3F)nc2n1 [Compound 278] | 100% |

Give pest or weed control at 280.212 g/ha for each listed item.
1. Cc1cc(C)n2nc(S(=O)(=O)Nc3ccccc3F)nc2n1 [Compound 8]
2. Cc1ccn2nc(S(=O)(=O)N(C(=O)CCCl)c3c(F)cccc3F)nc2n1 [Compound 282]
3. CC(C)c1ccn2nc(S(=O)(=O)Nc3c(Cl)cccc3Cl)nc2n1 [Compound 204]
4. COc1ccc(Cl)c(NS(=O)(=O)c2nc3nc(C)ccn3n2)c1Cl [Compound 170]
5. Cc1cc(C)n2nc(S(=O)(=O)Nc3c(Cl)cccc3Br)nc2n1 [Compound 39]

75%
100%
0%
0%
100%

The reported numbers originate from patent US4740233A.
